Each item that follows carries a reported glycan array binding signal (z-score).
assay target: Gal(b1-4)GlcNAc(b1-3)Gal(b1-4)GlcNAc(b1-2)Man(a1-3)[Gal(b1-4)GlcNAc(b1-3)Gal(b1-4)GlcNAc(b1-2)Man(a1-6)]Man(b1-4)GlcNAc(b1-4)[Fuc(a1-6)]GlcNAc
experiment summary: glycan array binding signal (z-score within array); higher = stronger binding
particulars: glycan notation: IUPAC condensed, linker removed
About 410 targets per protein were measured; listed, in parts, are those with the strongest signals and a random draw of the rest.
Field format: numeric only.

The cases that follow already have their glycan array binding signal (z-score) on record.
SJCP1084 (Schistosoma japonicum) (protein) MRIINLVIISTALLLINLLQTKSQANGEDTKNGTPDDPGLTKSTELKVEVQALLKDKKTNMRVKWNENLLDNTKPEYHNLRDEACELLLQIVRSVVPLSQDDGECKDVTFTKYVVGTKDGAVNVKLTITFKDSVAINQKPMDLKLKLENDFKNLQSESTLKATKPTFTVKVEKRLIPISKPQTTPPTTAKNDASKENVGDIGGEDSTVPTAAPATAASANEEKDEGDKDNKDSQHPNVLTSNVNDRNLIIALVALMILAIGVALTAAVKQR    4.14
RBMC1 (Vibrio cholerae) (protein) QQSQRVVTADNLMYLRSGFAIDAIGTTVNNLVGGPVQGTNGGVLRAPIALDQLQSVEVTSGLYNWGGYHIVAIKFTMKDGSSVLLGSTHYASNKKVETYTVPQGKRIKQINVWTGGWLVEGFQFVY    2.64
Protein L(B1-B4) (Finegoldia magna), Q51912 (protein) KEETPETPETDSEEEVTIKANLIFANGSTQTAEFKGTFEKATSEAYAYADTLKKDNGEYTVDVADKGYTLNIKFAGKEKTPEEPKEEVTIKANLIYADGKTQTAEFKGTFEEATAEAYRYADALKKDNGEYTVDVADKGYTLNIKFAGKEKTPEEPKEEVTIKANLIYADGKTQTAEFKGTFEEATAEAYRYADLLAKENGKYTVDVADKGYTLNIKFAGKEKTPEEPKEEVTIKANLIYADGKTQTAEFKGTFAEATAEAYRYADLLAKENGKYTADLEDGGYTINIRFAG    0.486

Consider the additional binder presented here.
Enquiry: Give the value of glycan array binding signal (z-score) reported for the following: Flo1 (Saccharomyces cerevisiae), P32768 (protein) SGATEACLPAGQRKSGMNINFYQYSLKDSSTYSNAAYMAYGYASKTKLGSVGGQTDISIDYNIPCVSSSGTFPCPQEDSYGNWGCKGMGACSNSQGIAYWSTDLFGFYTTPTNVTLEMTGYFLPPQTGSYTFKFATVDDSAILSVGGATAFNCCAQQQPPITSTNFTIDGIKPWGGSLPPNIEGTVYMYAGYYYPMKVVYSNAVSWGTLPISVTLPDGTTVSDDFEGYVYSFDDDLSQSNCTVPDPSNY
Return: 8.23

Entry source: the supplement of paper PMC8728848
